Give measured IC50 for each item. Keep answers brief.
assayed.system: Human immunodeficiency virus type 1 reverse transcriptase (Human immunodeficiency virus 1, UniProt Q72547)
API: value field is a number in µM; no unit string.

Qu. Give its IC50 value. Item: C=CCc1c(C)nc(N2C(=O)CSC2c2c(Cl)cccc2Cl)nc1C (stereo unspecified)
Ans. 1.22

Qu. Same again, this time with Cc1nc(N2C(=O)CSC2c2c(F)cccc2Cl)nc(C)c1C (stereo unspecified)
Ans. 0.38

Qu. Same again, this time with CCCc1c(C)nc(N2C(=O)CSC2c2c(Cl)cccc2Cl)nc1C (stereo unspecified)
Ans. 0.77

Qu. Same again, this time with CCc1c(C)nc(N2C(=O)CSC2c2c(F)cccc2Cl)nc1C (stereo unspecified)
Ans. 0.23

Qu. Same again, this time with Cc1nc(N2C(=O)CSC2c2c(Cl)cccc2Cl)nc(C)c1CCC#N (stereo unspecified)
Ans. 1.02

Qu. Same again, this time with CCCc1c(C)nc(N2C(=O)CSC2c2c(F)cccc2Cl)nc1C (stereo unspecified)
Ans. 0.85

Qu. Same again, this time with Cc1nc(N2C(=O)CSC2c2c(Cl)cccc2Cl)nc(C)c1C (stereo unspecified)
Ans. 0.83

Qu. Same again, this time with CCCCCc1c(C)nc(N2C(=O)CSC2c2c(F)cccc2Cl)nc1C (stereo unspecified)
Ans. 16.1

Qu. Same again, this time with Cc1nc(N2C(=O)CSC2c2c(F)cccc2Cl)nc(C)c1Br (stereo unspecified)
Ans. 1.52

Qu. Same again, this time with CCCCCc1c(C)nc(N2C(=O)CSC2c2c(Cl)cccc2Cl)nc1C (stereo unspecified)
Ans. 74.4

Qu. Same again, this time with CCCCc1c(C)nc(N2C(=O)CSC2c2c(F)cccc2Cl)nc1C (stereo unspecified)
Ans. 16

Qu. Same again, this time with Cc1nc(N2C(=O)CSC2c2c(F)cccc2Cl)nc(C)c1CCC#N (stereo unspecified)
Ans. 2.01

Qu. Same again, this time with Cc1nc(N2C(=O)CSC2c2c(Cl)cccc2Cl)nc(C)c1Br (stereo unspecified)
Ans. 9.82

Qu. Same again, this time with CCCCc1c(C)nc(N2C(=O)CSC2c2c(Cl)cccc2Cl)nc1C (stereo unspecified)
Ans. 4.29

Qu. Same again, this time with CCc1c(C)nc(N2C(=O)CSC2c2c(Cl)cccc2Cl)nc1C (stereo unspecified)
Ans. 0.26

Qu. Same again, this time with C=CCc1c(C)nc(N2C(=O)CSC2c2c(F)cccc2Cl)nc1C (stereo unspecified)
Ans. 2.92

Provenance of the data: ChEMBL document CHEMBL1137762
